Uptake Tumor (22Rv1), Mean values for the molecules below.
Tested on: 22Rv1 tumor-bearing mice
Assay: Biodistribution in 22Rv1 tumor-bearing mice
Conditions: 60 min p.i., 0.74 MBq, n = 3
Procedure: The animal studies were approved by the institutional animal care and use committee of the Chinese PLA General Hospital. Healthy male ICR mice were injected with either a novel radiotracer (37 MBq in 150 μL) or saline (150 μL) for the radiotoxicity evaluation. […] […] (10 min, 30 min, 60 min), tumors and interested organs were harvested, weighed and measured by a γ-counter, the results were expressed as the percentage of injected dose per gram (ID%/g). […]

{"columns": ["molecule", "experimental target", "Uptake Tumor (22Rv1), Mean (ID%/g)"],
 "data": [
  ["O=C([O-])CN1CCN(CC(=O)[O-])CCN(CC(=O)NCC2CCC(C(=O)NC(Cc3ccncc3)C(=O)NCCCCC(NC(=O)NC(CCC(=O)O)C(=O)O)C(=O)O)CC2)CCN(CC(=O)O)CC1.[68Ga+3] (stereo not shown) [[^68Ga]Ga-PSMA-4PY]", "22Rv1 tumor-bearing mice", 2.15],
  ["O=C([O-])CN1CCN(CC(=O)[O-])CCN(CC(=O)NCC2CCC(C(=O)NC(Cc3ccc4ccccc4c3)C(=O)NCCCCC(NC(=O)NC(CCC(=O)O)C(=O)O)C(=O)O)CC2)CCN(CC(=O)O)CC1.[68Ga+3] (stereo not shown) [[^68Ga]Ga-PSMA-617, reference compound]", "22Rv1 tumor-bearing mice", 4.27],
  ["O=C([O-])CN1CCN(CC(=O)[O-])CCN(CC(=O)NCCCCCC(=O)NC(Cc2cnc3ccccc3c2)C(=O)NCCCCC(NC(=O)NC(CCC(=O)O)C(=O)O)C(=O)O)CCN(CC(=O)O)CC1.[68Ga+3] (stereo not shown) [[^68Ga]Ga-PSMA-Q-2]", "22Rv1 tumor-bearing mice", 2.15],
  ["O=C([O-])CN(CCN(CC(=O)[O-])Cc1cc(CCC(=O)NCCCCCC(=O)NCCCC[C@H](NC(=O)N[C@@H](CCC(=O)O)C(=O)O)C(=O)O)ccc1[O-])Cc1cc(CCC(=O)O)ccc1[O-].[68Ga+3].[OH3+] [[^68Ga]Ga-PSMA-11, reference compound]", "22Rv1 tumor-bearing mice", 2.38],
  ["O=C([O-])CN1CCN(CC(=O)[O-])CCN(CC(=O)NCCCCC(=O)NC(Cc2cnc3ccccc3c2)C(=O)NCCCCC(NC(=O)NC(CCC(=O)O)C(=O)O)C(=O)O)CCN(CC(=O)O)CC1.[68Ga+3] (stereo not shown) [[^68Ga]Ga-PSMA-Q-1]", "22Rv1 tumor-bearing mice", 2.38],
  ["O=C([O-])CN1CCN(CC(=O)[O-])CCN(CC(=O)NCC2CCC(C(=O)NC(Cc3cnc4ccccc4c3)C(=O)NCCCCC(NC(=O)NC(CCC(=O)O)C(=O)O)C(=O)O)CC2)CCN(CC(=O)O)CC1.[68Ga+3] (stereo not shown) [[^68Ga]Ga-PSMA-Q]", "22Rv1 tumor-bearing mice", 4.06],
  ["O=C([O-])CN1CCN(CC(=O)[O-])CCN(CC(=O)NCc2ccc(C(=O)NC(Cc3cnc4ccccc4c3)C(=O)NCCCCC(NC(=O)NC(CCC(=O)O)C(=O)O)C(=O)O)cc2)CCN(CC(=O)O)CC1.[68Ga+3] (stereo not shown) [[^68Ga]Ga-PSMA-Q-3]", "22Rv1 tumor-bearing mice", 3.31]
]}
